molecules and their reported AUC(0-t)
# Test Details: Pharmacokinetic studies in Sprague Dawley rats (oral gavage and IV)
# Assay type: in vivo
# Recorded Conditions: rat, Oral (5 mg/kg), male SD rats, plasma, read-out: AUC0-24 h
// return numeric value only (unit: ng·h/mL, not printed)

Examples from the recorded data:
Smi | Assay Result
CC1(C)C(=O)C(C#N)=C[C@]2(C)C3=CC(=O)[C@@H]4[C@@H]5C[C@@](C)(N6CCCC6=O)CC[C@]5(C)CC[C@@]4(C)[C@]3(C)CC[C@@H]12 | 94
CC1(C)C(=O)C(C#N)=C[C@]2(C)C3=CC(=O)[C@@H]4[C@@H]5C[C@@](C)(N6C(=O)CCC6=O)CC[C@]5(C)CC[C@@]4(C)[C@]3(C)CC[C@@H]12 | 181

Continue with the next molecule.
Ask: Form field: reported AUC(0-t) of Cc1noc([C@@]2(C)CC[C@]3(C)CC[C@]4(C)[C@H](C(=O)C=C5[C@@]6(C)C=C(C#N)C(=O)C(C)(C)[C@@H]6CC[C@]54C)[C@@H]3C2)n1
Result: 412

These entries and their values trace back to patent US20220017566A1.
